The measurements presented in this section are drawn from ChEMBL document CHEMBL3352250.

- Tested on: Staphylococcus aureus
- methodDescription: Antimicrobial activity against Staphylococcus aureus subsp. aureus DSM 799 incubated for 24 hrs by disk diffusion method
- Assay type: functional
- studyConditions: DSM 799, 24 h
Listing of recorded MIC by entry.
Entry rule: numbers only, all in µg/mL.

C=C(C(=O)O)[C@H](CCCC)C(=O)O	10
CC[C@@H](C)[C@H]1C=C[C@H]2[C@H](O)[C@H](O)C[C@@H](C)[C@@H]2[C@@]1(C)C(=O)/C=C/OC	1
C=C(C(=O)O)[C@H](CCCCCC)C(=O)O	10

(Q) Look up MIC for this molecule: CN[C@@H]1[C@H](O[C@H]2[C@H](O[C@H]3[C@H](O)[C@@H](O)[C@H](N=C(N)N)[C@@H](O)[C@@H]3N=C(N)N)O[C@@H](C)[C@]2(O)C=O)O[C@@H](CO)[C@H](O)[C@H]1O [STREPTOMYCIN]
(A) 5

---

Listing of recorded MIC by entry.
- Test system: Staphylococcus aureus
- methodDescription: Antimicrobial activity against Staphylococcus aureus subsp. aureus DSM 799 incubated for 24 hrs by disk diffusion method
- Assay type: functional
- studyConditions: DSM 799, 24 h

# annotated cases, reported MIC shown
C[C@]1(C(=O)O)[C@@H]2C=C(C(=O)O)CC[C@@H]21	> 10 µg/mL
CC(C)=CCC[C@]1(C)[C@@H]2[C@H]1C=C(C(=O)O)C[C@@H]2O	> 10 µg/mL

(Q) Look up MIC for this compound: CC[C@@H](C)[C@H]1C=C[C@H]2[C@H](O)[C@H](O)C[C@@H](C)[C@@H]2[C@@]1(C)C(=O)/C=C\O
(A) > 10 µg/mL
